Assay: NCI Yeast Anticancer Drug Screen. Data for the sgs1 mgt1 strain (AID 161);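 further: 0% = growth of cultures given vehicle only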
Details: S. cerevisiae sgs1 mgt1 strain, at 5.0 µM (retest, dose inferred, filed as 0.5), hits give high values
Compounds without any hit were thinned out: in the full panel of roughly 79,000, 15% have a hit.

molecule: CC(C)CC[CH2][Pb]([CH2]CCC(C)C)([CH2]CCC(C)C)[O]C(=O)C(Cl)(Cl)Cl
growth inhibition / %: 17

molecule: CC(=O)[O-].O=[N+]([O-])c1ccc([O-])c(C=NCCN=Cc2cc([N+](=O)[O-])ccc2[O-])c1.[Mn+3]
growth inhibition / %: 10

molecule: O=C1C(=O)C(Br)(Br)C(Br)=C1Br
growth inhibition / %: -4

molecule: CC(=O)[CH-]C(C)=O.CC(=O)[CH-]C(C)=O.[O-]c1ccccc1.[O-]c1ccccc1.[Ti+4]
growth inhibition / %: 19

molecule: O=C(O)C(O)(c1ccc(-c2ccccc2)cc1)c1ccc(-c2ccccc2)cc1
growth inhibition / %: 0

molecule: O=[N+]([O-])c1ccc(C(Br)Br)cc1
growth inhibition / %: 79

molecule: C[N+](C)(C)CC1CCCc2ccccc2C1=O (stereo unspecified)
growth inhibition / %: 17

molecule: CC(=O)CC(=O)Nc1c(C)[c]([Hg][O]C(C)=O)c(C)[c]([Hg][O]C(C)=O)[c]1[Hg][O]C(C)=O
growth inhibition / %: 57

molecule: O=C(Nc1n[c]([Hg][Cl])[c]([Hg][Cl])s1)OCc1ccccc1
growth inhibition / %: 98

molecule: C[C@]12CC[C@H](OC3OC(CO)C(O)C(O)C3O)C[C@H]1CC[C@@H]1[C@@H]2CC[C@]2(C)[C@@H](C3=CCOC3=O)CC[C@]12O (stereo partly specified)
growth inhibition / %: -17

molecule: COC(=O)c1ccc([As]=O)cc1N (stereo unspecified)
growth inhibition / %: -1

molecule: O=c1s[se]c2ccccc12
growth inhibition / %: 17

molecule: O=c1oc2cc(O)ccc2c(O)c1C(c1ccc(/C=C/c2ccccc2)cc1)c1c(O)c2ccc(O)cc2oc1=O
growth inhibition / %: -20

molecule: COc1ccc(/C=C(\C)[N+](=O)[O-])cc1OC
growth inhibition / %: 55

molecule: CCOC(=O)C1=C(C)/C(=C/c2[n-]c(C)c(C(=O)OCC)c2C)N=C1C.CCOC(=O)C1=C(C)/C(=C/c2[n-]c(C)c(C(=O)OCC)c2C)N=C1C.[Zn+2]
growth inhibition / %: 2

molecule: CC(=O)c1cc(CN(CCCl)CCCl)c(O)c(CN(CCCl)CCCl)c1O
growth inhibition / %: 10

molecule: CS(=N)(=O)CCC(N)C(=O)O (stereo unspecified)
growth inhibition / %: -65

molecule: O=C1C=C(Cl)C(=O)C(Cl)=C1
growth inhibition / %: 7

molecule: CC(C)[S-].CC(C)[S-].[Pt+2].c1ccc([PH+](c2ccccc2)c2ccccc2)cc1.c1ccc([PH+](c2ccccc2)c2ccccc2)cc1
growth inhibition / %: 2

molecule: O=C(c1ccccc1)c1cc(CN(CCCl)CCCl)c(O)cc1O
growth inhibition / %: 7

molecule: CCCCCCC(=O)[O][Hg][c]1ccccc1
growth inhibition / %: 100

molecule: Nc1ccc(C(=O)O)c(C(=O)O)c1.[Cl][Sn]([Cl])([Cl])[Cl]
growth inhibition / %: 8

molecule: C/C(CC(=O)Nc1ccc([N+](=O)[O-])cc1)=N\Nc1ccc([N+](=O)[O-])cc1[N+](=O)[O-]
growth inhibition / %: 48

molecule: O=C(OCC(CCl)OC(=O)C(Cl)(Cl)Cl)C(Cl)(Cl)Cl (stereo unspecified)
growth inhibition / %: -31

molecule: CO[C@@]12[C@@H]3N[C@@H]3CN1C1=C(C(=O)C(N(C)c3ccc(O)cc3)=C(C)C1=O)[C@@H]2COC(N)=O
growth inhibition / %: -7

molecule: C[C@]12CC[C@H](O)C[C@@H]1CC[C@@H]1[C@@H]2CC[C@]2(C)C(=O)/C(=C/O)C[C@@H]12
growth inhibition / %: -1

molecule: CCC[CH2][Sn]1([CH2]CCC)[O]C(=O)CN=Cc2ccccc2[O]1
growth inhibition / %: 85

molecule: CC(=O)Nc1c2sscc-2n(C)c1=O
growth inhibition / %: 99

molecule: C/C=C(\C)C(=O)OC1CC(C)(C)CC2C3=CCC4C5(C)CCC(=O)C(C)(C)C5CCC4(C)C3(C)CCC12C(=O)O (stereo unspecified) (tested in a mixture with another compound)
growth inhibition / %: 5

molecule: CC1=NNC(=O)C1(Br)Br
growth inhibition / %: 2

molecule: C[CH2][Sn]([CH2]C)([CH2]C)[CH2]C
growth inhibition / %: -3

====

Experiment: NCI Yeast Anticancer Drug Screen. Data for the cln2 rad14 strain (AID 165);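 further: 0% = growth equal to vehicle treated cultures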
Details: S. cerevisiae cln2 rad14 strain, at 50.0 µM (retest, dose inferred, filed as 5.0), hits give high values
About 79,000 compounds went through this panel and 15% of them were active in at least one assay; those are over-represented in the sample as a whole. Activity calls are given as the source filed them. Rule as the data show it: active = growth inhibition above about 70%; inactive = the rest.

compound: Cc1cc(OC(=O)N(CCCl)CCCl)c(C(C)C)cc1N=O
growth inhibition: 92% (active)

compound: CC(=O)[C-](I)C(C)=O.CC(=O)[C-](I)C(C)=O.CC(=O)[C-](I)C(C)=O.[Ru+3]
growth inhibition: 85% (active)

compound: S=C=[N][Sn]([N]=C=S)([c]1ccccc1)[c]1ccccc1.c1ccc2nc(-c3ccc4ccccc4n3)ccc2c1
growth inhibition: 99% (active)

compound: COc1cc(C2c3cc4c(cc3[C@@H](Nc3ccc([N+](=O)[O-])cc3)C3COC(=O)[C@H]23)OCO4)cc(OC)c1O (some centres undefined)
growth inhibition: 97% (active)

====

Assay: NCI Yeast Anticancer Drug Screen. Data for the mec2-1 strain (AID 157)
Settings: S. cerevisiae mec2-1 strain, at 50.0 µM, hits give high values
About 79,000 compounds went through this panel and 15% of them were active in at least one assay; those are over-represented in the sample as a whole.
Measured growth inhibition by item

compound: [N-]=[N+]=NC1(C(=O)O)CCCC1
display unit: %
growth inhibition: -6.85
--
compound: N#CS.N=C=S.N=C=S.[Cu+2].[NH2-].[NH2-].[NH2-].[NH2-].c1ccc2ncccc2c1
display unit: %
growth inhibition: -16.6
--
compound: CC(C)N1CCc2cc3c(cc2C1)OCO3
display unit: %
growth inhibition: 11.1
--
compound: CCCCOP(=S)(Nc1ccccc1)OCCCC
display unit: %
growth inhibition: 40.7
--
compound: CC(=O)OCC12CCC(C)=CC1OC1C(N(C)C)C(O)C2(C)C12CO2 (stereo unspecified)
display unit: %
growth inhibition: 49.6
--
compound: COC(=O)c1ccc(C=C(C#N)C#N)cc1
display unit: %
growth inhibition: -2.6

====

Test: NCI Yeast Anticancer Drug Screen. Data for the cln2 rad14 strain (AID 165);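 further: 0% = growth equal to vehicle treated cultures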
Conditions: S. cerevisiae cln2 rad14 strain, at 50.0 µM
Compounds without any hit were thinned out: in the full panel of roughly 79,000, 15% have a hit. Activity calls are given as the source filed them. Cut-off read from the data, not from the text of the source: active = growth inhibition above about 70%; inactive = the rest.
Outcomes: active, inactive

compound: COc1ccccc1CC(C)NC(C)Cc1ccccc1OC (stereo not given)
group: inactive

compound: CC(C)(C)C1(C)CN(N=O)C(=O)O1 (stereo not given)
group: inactive

compound: COC1=C(Cl)C(=O)c2ccccc2C1=O
group: active

compound: CCCCOCN(COCCCC)C(C)Cc1ccccc1 (stereo not given)
group: inactive

compound: C=CCN(CC=C)C(Cc1ccccc1)c1ccccc1 (stereo not given)
group: inactive

====

Item-by-item account of growth inhibition
Assay: NCI Yeast Anticancer Drug Screen. Data for the cln2 rad14 strain (AID 165);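 further: 0% = growth equal to vehicle treated cultures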
Conditions: S. cerevisiae cln2 rad14 strain, at 50.0 µM, hits give high values
Method: Growth inhibition of yeast strains with defined genetic alterations is measured as a screen for potential anti-cancer activity. Selected strains with alterations in DNA damage repair or cell cycle control were exposed to compounds and growth inhibition was measured relative to vehicle treated controls. The strain used in this assay is cln2 rad14
This is part of a sample that, as a whole, favours compounds with a hit. Of some 79,000 tested, about 15% had one in any assay.

molecule: CN(C)C(=O)CCl
growth inhibition, %: 9.9

molecule: O=C1CC2CCCC(C1)N2Cc1ccccc1
growth inhibition, %: 37.5

molecule: Cc1ccc(S(=O)(=O)F)cc1
growth inhibition, %: -14.7

molecule: C[N+]1(CCCl)CCc2cc([N+](=O)[O-])ccc2C1 (stereo not drawn)
growth inhibition, %: -16.1

molecule: CC(=O)C(=O)c1ccccc1
growth inhibition, %: -25.8

molecule: CCCCCCCCCCNP(=S)(NCCCCCCCCCC)c1ccccc1
growth inhibition, %: -19.8

molecule: O=C(O)c1cccc2cccc(C(=O)O)c12.[Hg]
growth inhibition, %: 98.5

molecule: O=[N+]([O-])c1ccc(SP(=S)(c2ccccc2)c2ccccc2)c([N+](=O)[O-])c1
growth inhibition, %: 83.2

molecule: O=C(Cl)C1CCC1
growth inhibition, %: -4.65

molecule: c1ccc2c(c1)[O][Sn][O]2
growth inhibition, %: 98.8

molecule: O=[N+]([O-])c1ccc(NP(=S)(Nc2ccc([N+](=O)[O-])cc2)c2ccccc2)cc1
growth inhibition, %: 90.8

molecule: Cc1cccc[c]1[Sb](=[O])([OH])[OH]
growth inhibition, %: -7.35

molecule: OC1CCCC2CCCNC12 (stereo not drawn)
growth inhibition, %: 86.3

molecule: CCCC[P+](C#Cc1ccccc1)(CCCC)CCCC
growth inhibition, %: 3.75

molecule: ClC1CCCCC1[Se](Cl)(Cl)C1CCCCC1Cl (stereo not drawn)
growth inhibition, %: 97.9

molecule: CC1(C)N=C(N)N=C(N)N1c1ccc(CCc2ccc(Cl)c(S(=O)(=O)F)c2)c(Cl)c1
growth inhibition, %: 93.8

molecule: COc1ccc(NC2=NCCO2)c2ccccc12
growth inhibition, %: -0.3

molecule: C[As](C)SCCC(N)C(=O)NC(CCS[As](C)C)C(=O)O (stereo not drawn)
growth inhibition, %: 92.2

molecule: O=C(CC(=O)C(F)(F)F)c1cccs1.O=C(CC(=O)C(F)(F)F)c1cccs1.O=C(CC(=O)C(F)(F)F)c1cccs1.[Eu]
growth inhibition, %: 9.4

molecule: CP1(=O)CCC23CCCCC21O3 (stereo not drawn)
growth inhibition, %: -20.8

molecule: C[C@@]1(CCCCCCCCCCc2ccccc2)C[C@@]2(C)OC(=O)C[C@H]2OO1
growth inhibition, %: -39

molecule: O=c1oc2cc(O)ccc2c(O)c1C(c1ccccn1)c1c(O)c2ccc(O)cc2oc1=O
growth inhibition, %: -1.85

molecule: O=P1(N2CCOCC2)OC(c2ccccc2)=CCN1c1ccccc1 (stereo not drawn)
growth inhibition, %: 39
